System: Fibroblast
Test: Multiplex assay against human fibroblast
Format: toxicity, cell-based
Settings: 48 h, 1 µM, compound concentration 1 uM, replicate 2
Values of Population Apoptotic (%) greater than or equal to 70% map to T; values below map to F.

Record excerpt, results attached:
Q: For this molecule, is measured Population Apoptotic (%) 70% or higher? `CCc1cc2c(cc1CC)CC(NC[C@H](O)c1ccc(O)c3[nH]c(=O)ccc13)C2`
A: T

Q: Decide: Population Apoptotic (%) of CCC(=O)O[C@]1(C(=O)SCF)[C@H](C)C[C@H]2[C@@H]3C[C@H](F)C4=CC(=O)C=C[C@]4(C)[C@@]3(F)[C@@H](O)C[C@@]21C [FLUTICASONE PROPIONATE] >= 70%?
A: T

Q: Assess whether reported Population Apoptotic (%) for `Nc1ccc(C(=O)Nc2cccc(-c3nc(N4CCOCC4)c4oc5ncccc5c4n3)c2)cn1` sits at 70% or higher.
A: F

Q: Check this molecule for Population Apoptotic (%) at or above 70%: CCn1c(-c2nonc2N)nc2cnc(Oc3cccc(NC(=O)c4ccc(OCCN5CCOCC5)cc4)c3)cc21 [GSK-269962A]
A: F

Q: Evaluate `CNc1oc(-c2cccc3ccccc23)nc1C#N` : Population Apoptotic (%) at minimum 70%?
A: T

Next:
Q: Is reported Population Apoptotic (%) greater than or equal to 70% here: `Nc1nc2c(c(N3CCNCC3)n1)CCC1=C2[C@@H]2CCCC[C@@H]2O1`
A: F

Q: Could you please find out whether `CC(=O)c1cc(-c2cc(C(=O)NC3CC3)ccc2C)c2ncccn12` has Population Apoptotic (%) that meets 70% or exceeds it?
A: F

Q: Can `CC(C)N1CCC(C)(C)c2cc(C#Cc3ccc(C(=O)O)cc3)ccc21` be said to have Population Apoptotic (%) at or above 70%?
A: F

###

# Lookup of reported Population Healthy Nuclei (%) keyed by entry
Test system: Fibroblast
Assay: Multiplex assay against human fibroblast
Type: toxicity, cell-based
Details: 24 h, 1 µM, compound concentration 1 uM, replicate 2
Dear colleague, please send the value followed by its unit.

Short answer for `c1ccc2oc(-c3csc(C4CCN(Cc5nc6ncccc6[nH]5)CC4)n3)cc2c1` : Population Healthy Nuclei (%) was 28%

Data point: `Nc1nc2c(c(N3CCNCC3)n1)CCC1=C2[C@@H]2CCCC[C@@H]2O1` ; Population Healthy Nuclei (%) = 57%

// `CC(C)(C)c1cnc(CSc2cnc(NC(=O)C3CCNCC3)s2)o1` : Population Healthy Nuclei (%) value = 32%

###

Test system: HEK-293T
Test: Multiplex assay against HEK293T
Type: toxicity, cell-based
Conditions: human, 24 h, 1 µM, compound concentration 1 uM, replicate 1
Measured Population Normal (%) by item
# value in %; strip the unit string

Consider the reported Population Normal (%) for these molecules:
GET /value?item= `CCc1cc2c(cc1CC)CC(NC[C@H](O)c1ccc(O)c3[nH]c(=O)ccc13)C2` &field=Population Normal (%) returns 83

// Population Normal (%) value for Cc1nc(Cc2cccc(C(F)(F)F)c2)sc1-c1ccc(C(N)=O)nc1 [TP-024n] : 88

Reported Population Normal (%) for CCC(=O)O[C@]1(C(=O)SCF)[C@H](C)C[C@H]2[C@@H]3C[C@H](F)C4=CC(=O)C=C[C@]4(C)[C@@]3(F)[C@@H](O)C[C@@]21C [FLUTICASONE PROPIONATE] was 82

Short answer for `COc1cc2c(NC3CCN(C(C)C)CC3)nc(N3CCC(F)(F)CC3)nc2cc1OCCCN1CCCC1` : Population Normal (%) was 75

# Population Normal (%) (molecule: `CCCn1c(=O)c2[nH]c(C34CC5CC(CC3C5)C4)nc2n(CCC)c1=O` ) is 77

Further cases:
Data point: `CCOc1cc2ncc(C#N)c(Nc3ccc(OCc4cccc(F)c4)c(Cl)c3)c2cc1NC(=O)/C=C/CN(C)C` ; Population Normal (%) = 91

Recorded result, `Nc1ccc(C(=O)Nc2cccc(-c3nc(N4CCOCC4)c4oc5ncccc5c4n3)c2)cn1` , Population Normal (%): 80

Value of measured Population Normal (%) for the entry `CNC(=O)c1cc(Oc2ccc(NC(=O)Nc3cc(C(C)(C)C)nn3-c3ccc4ncccc4c3)c(F)c2)ccn1` : 87

molecule CCn1c(-c2nonc2N)nc2cnc(Oc3cccc(NC(=O)c4ccc(OCCN5CCOCC5)cc4)c3)cc21 [GSK-269962A] , Population Normal (%) observed: 83

Lookup result for `CC(C)N1CCC(C)(C)c2cc(C#Cc3ccc(C(=O)O)cc3)ccc21` ; measured Population Normal (%): 80

###

Test system: HEK-293T
Assay: Multiplex assay against HEK293T
Format: toxicity, cell-based
Conditions: human, 24 h, 10 µM, compound concentration 10 uM, replicate 2
METRIC: Population Mitotic Cells (%)
Entry rule: numbers only, all in %.

Below are worked cases with known answers.
According to the records, this compound `Nc1nc2c(c(N3CCNCC3)n1)CCC1=C2[C@@H]2CCCC[C@@H]2O1` displays Population Mitotic Cells (%) of 18

CCn1c(-c2nonc2N)nc2cnc(Oc3cccc(NC(=O)c4ccc(OCCN5CCOCC5)cc4)c3)cc21 [GSK-269962A] yielded Population Mitotic Cells (%) of 28

Kindly review the next compound as well.
GET /value?item= `CC(=O)c1cc(-c2cc(C(=O)NC3CC3)ccc2C)c2ncccn12` &field=Population Mitotic Cells (%) returns 71

###

Test system: Fibroblast
Assay: Multiplex assay against human fibroblast
Assay type: toxicity, cell-based
Details: 12 h, 10 µM, compound concentration 10 uM, replicate 1
For each record, check the reported Population Fragmented Nuclei (%): if it is below 30% write T, else write F.

// known answers, use as guide
Q: In the record for `Cc1cn(-c2cc(NC(=O)c3ccc4c(c3)CN(c3cncnc3)C[C@@H]4C)cc(C(F)(F)F)c2)cn1` , is Population Fragmented Nuclei (%) less than 30%?
A: F

Q: Criterion: Population Fragmented Nuclei (%) strictly below 30%. Is it met by `CNc1oc(-c2cccc3ccccc23)nc1C#N` ?
A: F

Q: Please state whether Population Fragmented Nuclei (%) is below 30% for `COc1ccc(NS(=O)(=O)c2sc3ccc(Cl)cc3c2C)cc1N1CCNCC1.Cl`
A: F

Q: Consider the molecule `CC(C)(C)c1cnc(CSc2cnc(NC(=O)C3CCNCC3)s2)o1` . Is its Population Fragmented Nuclei (%) strictly less than 30%?
A: T

Q: Is it true that Population Fragmented Nuclei (%) reported for `Cl.Cl.NC1(c2ccc(-c3nc4ccn5c(=O)[nH]nc5c4cc3-c3ccccc3)cc2)CCC1` is less than 30%?
A: T

New cases:
Q: Decide: Population Fragmented Nuclei (%) of `Nc1nc2c(c(N3CCNCC3)n1)CCC1=C2[C@@H]2CCCC[C@@H]2O1` strictly below 30%?
A: T

Q: Below 30% on Population Fragmented Nuclei (%)? Entry `N#Cc1cnc(Nc2cc(NC[C@H]3CNCCO3)c(C(F)(F)F)cn2)cn1`
A: F

Q: I wonder whether `COc1cc2c(Nc3ccc(NC(=O)c4ccccc4)cc3)ncnc2cc1OCCCN1CCOCC1` has Population Fragmented Nuclei (%) below 30%. Can you tell?
A: F

###

Test system: U2OS
Assay: Multiplex assay against U2OS
Type: toxicity, cell-based
Conditions: human, 12 h, 1 µM, compound concentration 1 uM, replicate 1
METRIC: Population Normal (%)
Kindly answer with a numeric value in %, unit omitted.

Previously resolved entries follow.
Population Normal (%) reported for this compound O=C(O)c1ccc2cc(-c3ccc(O)c(C45CC6CC(CC(C6)C4)C5)c3)ccc2c1 [O-DEMETHYLATED ADAPALENE] : 88

The compound listed as CC(C)Oc1ccc(C(=O)N[C@H](CNC(=O)CN(C)C)Cc2ccc(-c3cn4cccc([C@H](C)O)c4n3)cc2)cc1Cl [GSK-923295A] shows Population Normal (%) equal to 98

The compound `CCOc1cc(N2CCC(O)CC2)ccc1Nc1ncc2c(n1)N(C1CCCC1)CCC(=O)N2C` showed Population Normal (%) equal to 95

Sure, the documented Population Normal (%) for CC(C)(C)c1cnc(CSc2cnc(NC(=O)C3CCNCC3)s2)o1 [BMS-387032] is 95

Lab note: `CC(C)N1CCC(C)(C)c2cc(C#Cc3ccc(C(=O)O)cc3)ccc21` gave Population Normal (%) of 88

Given item `CNc1oc(-c2cccc3ccccc23)nc1C#N` , the value recorded as its Population Normal (%) is 83

Consider the record given below.
Field Population Normal (%) (entry `COc1cc2c(Nc3ccc(NC(=O)c4ccccc4)cc3)ncnc2cc1OCCCN1CCOCC1` ) reads 98

###

Listed here: items and their measured Population Fragmented Nuclei (%).
System: Fibroblast
Assay: Multiplex assay against human fibroblast
Type: toxicity, cell-based
Settings: 24 h, 10 µM, compound concentration 10 uM, replicate 1
Respond with the bare value in %.

Record excerpt, results attached:
Form field Population Fragmented Nuclei (%), entry `CC(C)N1CCC(C)(C)c2cc(C#Cc3ccc(C(=O)O)cc3)ccc21` : 86

Recorded result, `Nc1ccc(C(=O)Nc2cccc(-c3nc(N4CCOCC4)c4oc5ncccc5c4n3)c2)cn1` , Population Fragmented Nuclei (%): 53

# molecule `COc1cc2c(NC3CCN(C(C)C)CC3)nc(N3CCC(F)(F)CC3)nc2cc1OCCCN1CCCC1` ; its Population Fragmented Nuclei (%) = 22

In plain terms, `CC(=O)c1cc(-c2cc(C(=O)NC3CC3)ccc2C)c2ncccn12` has a documented Population Fragmented Nuclei (%) of 21

Next:
Per the record, N#Cc1cnc(Nc2cc(NC[C@H]3CNCCO3)c(C(F)(F)F)cn2)cn1 [SRA-737] has Population Fragmented Nuclei (%) of 41

So for `Cc1cc2c(cc1N1C(=O)c3cccc4c(CCCO)ccc(c34)C1=O)n(C)c(=O)n2C` , the logged Population Fragmented Nuclei (%) turned out to be 22

Per the record, CCOc1cc2ncc(C#N)c(Nc3ccc(OCc4cccc(F)c4)c(Cl)c3)c2cc1NC(=O)/C=C/CN(C)C [HKI-357] has Population Fragmented Nuclei (%) of 44

Entry CN(C)CCOc1ccc(-c2nc(-c3ccncc3)c(-c3ccc4c(c3)CC/C4=N\O)[nH]2)cc1 [SB590885] ; Population Fragmented Nuclei (%) = 35

The value of Population Fragmented Nuclei (%) measured for the molecule `CNc1oc(-c2cccc3ccccc23)nc1C#N` turned out to be 44

Documented Population Fragmented Nuclei (%) of `Cc1cn(-c2cc(NC(=O)c3ccc4c(c3)CN(c3cncnc3)C[C@@H]4C)cc(C(F)(F)F)c2)cn1` : 36

The molecule identified as CC(C)(C)c1cnc(CSc2cnc(NC(=O)C3CCNCC3)s2)o1 [BMS-387032] registered its Population Fragmented Nuclei (%) at 34

Record CCc1cc2c(cc1CC)CC(NC[C@H](O)c1ccc(O)c3[nH]c(=O)ccc13)C2 [INDACATEROL] , field Population Fragmented Nuclei (%): 30

Attribution: ChEMBL document CHEMBL4689842
